# target desc: T1, Soluble CTLA-4-Ig (extracellular domain of human CTLA-4 fused to the Fc portion of human IgG1) (human, UniProt P16410 36-161, FITC-conjugated in the FACS binding assays)
# T1 construct: extracellular domain; bought from R&D Systems; also called sCTLA-4-Ig; CTLA-4-Ig Fc; not shown: Fc portion of human IgG1
# T1 sequence (P16410 36-161): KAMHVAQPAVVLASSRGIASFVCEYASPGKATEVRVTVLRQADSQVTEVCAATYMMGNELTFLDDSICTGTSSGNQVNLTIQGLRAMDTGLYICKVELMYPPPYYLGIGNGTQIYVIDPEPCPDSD
# protocol: competitive FACS on transfected cells, FITC-sCTLA-4-Ig with biotin-sCD28-Ig; grade 0-2 of CTLA-4/CD28 ratio vs WT hB7-1
test readout: Binding Score
In your answer, state the number alone without any accompanying words.

QUERY: Query (binder): Round 2 CTLA4BP 2x1-b12 (ligand) VIHMTKEVKEVATLSCGHNVSVEELAQTRIYWQKEKKMVLTMMSGDMNIWPEYKNRTIFDITNNLSIVILALRPSDEGTYECVALKYEKDAFKQEHLAEVTLSVKADFPTPSISDFEIPPSNIRRIICSTSGGFPEPRLAWMEDGEELNAINTTVSQDPETELYTVSSKLDFNMTANHSFMCLIKYGHLRVNQTFNWNTPKQEHFPDNLLPSWAITLISVNGIFVICCLTYCFAPRCRERRRNERLRRESVCPV ; field requested: Binding Score
RESULT: 1
